Listing: EC50 of selected molecules
System: Streptococcus
experimental_protocol: GAS UMAA2166 growth inhibition – luminescence, BacTiterGlo, counter-screen for streptokinase expression inhibitor project, dose response (AID 1915);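 also: potency for reduction of bacterial viability or growth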
Assay type: functional, organism-based
Active and inactive are the calls of the source.

Recorded EC50, per entry:
Would you kindly share the measured EC50 for Cc1ccc(/C=C2/Sc3ccc(C(=O)N4CCC5(CC4)OCCO5)cc3NC2=O)cc1 ?
9.49 µM (active)

Would you kindly share the measured EC50 for COc1ccc(N2CCN(CC(=O)Nc3nc4c(s3)CC(C)CC4)CC2)cc1 (configuration not stated) ?
> 150 µM (not active)

Would you kindly share the measured EC50 for Cn1c(S)nnc1-c1cc(Br)ccc1O ?
> 150 µM (not active)

More entries:
Would you kindly share the measured EC50 for Cc1ccc(C(=O)N/N=C/c2ccc([N+](=O)[O-])s2)cc1 ?
14.3 µM (active)

Would you kindly share the measured EC50 for Cc1nc(N)sc1N=Nc1ccc(F)cc1 ?
> 150 µM (not active)

Would you kindly share the measured EC50 for c1ccc2sc(SCSc3nc4ccccc4s3)nc2c1 ?
> 150 µM (not active)

Would you kindly share the measured EC50 for Cn1cccc1C(=O)Nc1nc(-c2ccccn2)cs1 ?
58.3 µM (active)

* * *

Listing: IC50 of selected compounds
assayed_target: Prothrombin (Homo sapiens, UniProt P00734)
experimental_protocol: Thrombin 1536 HTS Dose Response Confirmation. [Related pubchem assays: 1046 (Thrombin 1536 HTS; hits were confirmed in this assay)]
Type: functional
The source made the active and inactive calls.

Recorded IC50, per entry:
Form field - read-out: IC50; system: Prothrombin (Homo sapiens, UniProt P00734); submitted item: O=C(COC(=O)CCOc1ccccc1)Nc1ccc(Cl)cn1
30.8 µM (active)

Form field - read-out: IC50; system: Prothrombin (Homo sapiens, UniProt P00734); submitted item: COc1ccc(CC(=O)n2nc(-c3cccnc3)nc2N)cc1
0.259 µM (active)

More entries:
Form field - read-out: IC50; system: Prothrombin (Homo sapiens, UniProt P00734); submitted item: Nc1nc(-c2ccccc2)nn1C(=O)Cc1ccccc1
1.51 µM (active)

Form field - read-out: IC50; system: Prothrombin (Homo sapiens, UniProt P00734); submitted item: Oc1nc2ccc(Cl)cc2c(-c2ccccc2)c1N1CCOCC1
> 50 µM (not active)

* * *

assayed_target: Hexokinase (Trypanosoma brucei, UniProt Q38C41)
Sequence (Q38C41 whole entry): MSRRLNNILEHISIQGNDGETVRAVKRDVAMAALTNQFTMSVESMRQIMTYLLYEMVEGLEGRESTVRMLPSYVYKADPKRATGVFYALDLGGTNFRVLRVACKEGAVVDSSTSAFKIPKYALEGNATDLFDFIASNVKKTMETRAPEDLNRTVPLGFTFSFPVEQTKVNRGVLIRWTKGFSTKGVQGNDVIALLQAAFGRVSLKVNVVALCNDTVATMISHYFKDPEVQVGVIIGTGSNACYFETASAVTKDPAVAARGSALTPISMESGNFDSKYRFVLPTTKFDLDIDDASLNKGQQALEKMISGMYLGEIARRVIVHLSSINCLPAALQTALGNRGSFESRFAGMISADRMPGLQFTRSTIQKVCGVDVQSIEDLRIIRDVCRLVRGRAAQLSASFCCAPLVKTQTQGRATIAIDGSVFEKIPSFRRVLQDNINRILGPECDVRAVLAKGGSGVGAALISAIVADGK
experimental_protocol: Confirmation assay for inhibitors of Trypanosoma brucei hexokinase 1-Analogue-first series. [Related pubchem assays (depositor defined):AID1430, AID1632, AID2516, AID2560, AID2579, AID2600, AID449725, AID492951]
Assay type: functional
Active and inactive are the calls of the source.
Log the outcome using a class from TRUE (active), FALSE (inactive)

// below: answered compounds
Dear colleague, could you share the recorded outcome for CC(C)(C)c1ccc(C(=O)Nc2cc(Cl)ccc2O)cc1 when you have a moment?
FALSE

Dear colleague, could you share the recorded outcome for O=C1c2cccc(Br)c2SCN1c1ccccc1 when you have a moment?
FALSE

Dear colleague, could you share the recorded outcome for O=C(Cn1sc2ccccc2c1=O)Nc1ccccc1I when you have a moment?
TRUE

We next turn to a different compound, shown below.
Dear colleague, could you share the recorded outcome for COc1ccc(C(=O)Nc2cc(I)ccc2C(=O)O)cc1 when you have a moment?
TRUE
